// compounds with pKi on Tyrosine-protein kinase JAK3 (Homo sapiens, UniProt P52333), multi-source literature
pKi: −log10 of the molar value.

Recall and state the measured pKi for CN(C)C(=O)c1cc(-c2ncc(F)c(N3CCC[C@@H]3C(=O)NCC(F)(F)F)n2)c[nH]1 .
4.30 to 5.00

Give the reported pKi for this compound. O=C(CC1CC1)Nc1nc(-c2ncnc3[nH]ccc23)cs1
> 7.00

Read off the recorded pKi for Nc1nn2cc(-c3ccc(CN4CCOCC4)cc3)cnc2c1-c1ccccn1
5.30 to 6.30

Tell me its pKi given Nc1nn2cc(-c3ccc(C(=O)N4CCCCC4)cn3)cnc2c1-c1ccccn1 as the entry.
> 6.30

Entry Fc1cccc(-n2cnnc2-c2c[nH]c3ncc(-c4cccnc4)cc23)c1F needs its pKi filled in; supply it.
4.90 to 6.00

Report pKi, nothing else, for this compound: CN(CCC#N)C(=O)c1cccc(-c2cnc3c(-c4ccccn4)c(N)nn3c2)n1
< 5.30

Let's switch to this compound now.
Read the entry COc1cnc2[nH]cc(-c3oncc3-c3cccc(F)c3F)c2c1 and write its reported pKi.
> 6.70

###

pKi: −log10 of the molar value.
Before we begin, note that these pKi values for Tyrosine-protein kinase JAK3 (Homo sapiens) originate from several publications.

Worked examples, 3 compounds total:
Entry CC(C)(C)CC(=O)Nc1nc(-c2ncnc3[nH]ccc23)cs1 needs its pKi filled in; supply it.
> 7.00

Write down pKi measured for item CC(C)CN(CCC#N)C(=O)c1cc(-c2ncnc3[nH]cc(Cl)c23)c[nH]1
> 7.00

State its pKi: CC(C)[C@](C)(Nc1nc(-c2c[nH]c3ncncc23)ncc1F)C(=O)NCC(F)(F)F
> 6.30

More entries:
Please look at this compound and report its pKi: Fc1cccc(-n2cnnc2-c2c[nH]c3ncc(-c4ccc(CN5CCOCC5)cc4)cc23)c1F
6.00 to 6.70

Answer with reported pKi of CCOC(=O)c1c(N)nn2cc(-c3ccccn3)cnc12
< 5.30

In one line, give reported pKi of the entry CCCN(CC)C(=O)c1cc(-c2ncnc3[nH]cc(C)c23)c[nH]1 .
6.30 to 7.00

Report measured pKi; entry is Fc1cccc(-n2cnnc2-c2c[nH]c3ncc(-c4ccncc4)cc23)c1F
4.90 to 6.00

Read the entry Fc1ccc(C2Nc3ccccc3-c3ccnc4[nH]cc2c34)c(F)c1 (centres unmarked) and write its reported pKi.
5.60 to 6.60

###

Listed below are molecules with pKi for Tyrosine-protein kinase JAK3 (Homo sapiens), each taken from published literature.
pKi: −log10 of the molar value.

Specify pKi for CC(C)NCCCc1cnc2c(-c3ccccn3)c(N)nn2c1 , system Tyrosine-protein kinase JAK3 (Homo sapiens).
< 5.30

Look up Tyrosine-protein kinase JAK3 (Homo sapiens) data: pKi of Fc1cccc(-c2cnoc2-c2n[nH]c3ncccc23)c1F , then report it.
4.90 to 6.00

Using Tyrosine-protein kinase JAK3 (Homo sapiens) as the test system, report measured pKi of Clc1ccccc1COc1cccc(C2Nc3ccccc3-c3ccnc4[nH]cc2c34)c1 (centres unmarked) .
5.60 to 6.60

Retrieve pKi on Tyrosine-protein kinase JAK3 (Homo sapiens); query CC(C)(Nc1nc(-c2ccc(O)cc2)ncc1F)C(=O)NCC(F)(F)F
≥ 6.00

Fill in: pKi on Tyrosine-protein kinase JAK3 (Homo sapiens), entry C[C@H](Nc1cc(-c2c(N)nn3cccnc23)nc(OCC2CCCN2)n1)c1ccc(F)cc1F (some centres unmarked)
6.30 to 7.00

###

Hi, quick share: literature Ki data for Tyrosine-protein kinase JAK3 (Homo sapiens, UniProt P52333), several sources combined.

Examples with their reported Ki follow.
Determine its reported Ki: O=C(NCC(F)(F)F)[C@H]1C[C@H](O)CN1c1ccnc(-c2c[nH]c3ncncc23)n1
< 500 nM

Note Ki for the compound shown: Fc1cccc(F)c1C1Nc2ccccc2-c2ccnc3[nH]cc1c23 (stereo not shown)
250 to 2500 nM

Answer with the recorded Ki for the compound listed here: Nc1ncccc1-c1ncc(F)c(NCCC(=O)NCC(F)(F)F)n1
1000 to 10000 nM

Others:
For the compound COCCOc1nc(N[C@@H](C)c2ccc(F)cc2F)cc(-c2cnn3cccnc23)n1 , report Ki.
10 to 100 nM

Report Ki for FC(F)(F)c1ccccc1C1Nc2ccccc2-c2ccnc3[nH]cc1c23 (stereo not shown)
250 to 2500 nM

Please give the documented Ki of COCCNc1nc(N[C@@H](C)c2ccc(F)cc2)cc(-c2c(N)nn3cccnc23)n1
10 to 100 nM

Please give measured Ki of the following entry: CCCCN(CCC)C(=O)c1cc(-c2ncnc3[nH]cc(C)c23)c[nH]1
100 to 500 nM

Tell me measured Ki for CC(C)(C)OC(=O)N1CCC(CNC(=O)c2cnc3c(-c4ccccn4)c(N)nn3c2)CC1 please.
> 5000 nM

###

What follows is literature data on pKi for Tyrosine-protein kinase JAK3 (Homo sapiens, UniProt P52333).
pKi: −log10 of the molar value.

Tell me pKi of COCCC(=O)Nc1nc(N[C@@H](C)c2ccc(F)cc2F)cc(-c2cnn3cccnc23)n1 when tested on Tyrosine-protein kinase JAK3 (Homo sapiens, UniProt P52333).
6.30 to 7.00

Name the recorded pKi of C=CCOc1nc(N[C@@H](C)c2ccc(F)cc2)cc(-c2c(N)nn3cccnc23)n1 , assay system Tyrosine-protein kinase JAK3 (Homo sapiens, UniProt P52333).
7.00 to 8.00

Give Tyrosine-protein kinase JAK3 (Homo sapiens, UniProt P52333) pKi for the following compound: CN(C)CCN(C)C(=O)c1ccc(-c2cnc3c(-c4ccccn4)c(N)nn3c2)cc1
5.30 to 6.30

Send back Tyrosine-protein kinase JAK3 (Homo sapiens, UniProt P52333) pKi of Cc1cnc2c(-c3cc(NC4CCNC4)ncn3)c(N)nn2c1 (stereo not shown) only.
> 6.30

Provide pKi, system Tyrosine-protein kinase JAK3 (Homo sapiens, UniProt P52333), entry Oc1ccc(C2Nc3ncccc3-c3ccnc4[nH]cc2c34)c(Cl)c1 (stereo not shown)
≥ 6.60

For Tyrosine-protein kinase JAK3 (Homo sapiens, UniProt P52333), give pKi of the listed compound: Nc1nn2cc(-c3ccccc3OCc3ccccc3)cnc2c1-c1ccccn1
< 5.30

###

Please find below Ki data on Tyrosine-protein kinase JAK3 (Homo sapiens) compiled from the literature.

// worked examples, Ki included
Lab note: record Ki of CC(C)NC(=O)c1cc(-c2ncc(F)c(NC(C)(C)C(=O)NCC(F)(F)F)n2)c[nH]1 tested on Tyrosine-protein kinase JAK3 (Homo sapiens).
10 to 50 µM

Provide Tyrosine-protein kinase JAK3 (Homo sapiens) Ki reading for CC(C)CC(=O)N1CCCN(c2cc(-n3cnc(Nc4ccccc4)n3)ccn2)CC1 .
> 1 µM

Report Ki from Tyrosine-protein kinase JAK3 (Homo sapiens) testing of O=C1Nc2ccccc2-c2ncnc3[nH]cc(c23)C1c1ccc(O)c(F)c1 (stereo not shown)
≤ 0.25 µM

---
// fetch Ki; item: COc1cc(Nc2ncn(-c3ccc(C#N)cc3)n2)cc(OC)c1OC ; system: Tyrosine-protein kinase JAK3 (Homo sapiens)
0.01 to 1 µM

###

Study the reported Ki values for Tyrosine-protein kinase JAK3 (Homo sapiens) given below; they originate from different publications.

Before answering, review these 5 worked examples.
Send back Tyrosine-protein kinase JAK3 (Homo sapiens) Ki of CCN(CCCCN)C(=O)c1ccc(-c2cnc3c(-c4ccccn4)c(N)nn3c2)nc1 only.
500 to 5000 nM

Give Ki; test system Tyrosine-protein kinase JAK3 (Homo sapiens); molecule NCc1ccc(-c2cnc3c(-c4ccccn4)c(N)nn3c2)cc1
500 to 5000 nM

# assay system Tyrosine-protein kinase JAK3 (Homo sapiens): give Ki of O=C(NCc1ccccc1)c1ccc(-c2ccnc(Nc3ccccc3)n2)cc1
≤ 1000 nM

Please report the measured Ki for Nc1nn2cc(-c3ccc(CN4CCNCC4)cc3)cnc2c1-c1ccccn1 tested on Tyrosine-protein kinase JAK3 (Homo sapiens).
500 to 5000 nM

Fill in Ki for O=C(Nc1nc(-c2ncnc3[nH]ccc23)cs1)C1CCCNC1 (stereo not drawn) tested with Tyrosine-protein kinase JAK3 (Homo sapiens).
< 100 nM

Continuing:
GET Ki | system: Tyrosine-protein kinase JAK3 (Homo sapiens) | item: C=CCOCCOc1nc(N[C@@H](C)c2ccc(F)cc2F)cc(-c2cnn3cccnc23)n1
10 to 100 nM

Report the value of Ki obtained on Tyrosine-protein kinase JAK3 (Homo sapiens) for Fc1cccc(C2Nc3ncccc3-c3ccnc4[nH]cc2c34)c1 (stereo not drawn) .
250 to 2500 nM

Give measured Ki for CN(C)Cc1cccc(-c2cnc3c(-c4ccccn4)c(N)nn3c2)c1 (Tyrosine-protein kinase JAK3 (Homo sapiens)).
> 5000 nM

Name the recorded Ki of C[C@H](Nc1cc(-c2cnn3cccnc23)ncn1)c1ccc(F)cc1 , assay system Tyrosine-protein kinase JAK3 (Homo sapiens).
10 to 100 nM

# return Ki of NC1CC=C(c2cnc3[nH]cc(-c4oncc4-c4cccc(F)c4F)c3c2)CC1 (stereo not drawn) (system: Tyrosine-protein kinase JAK3 (Homo sapiens))
< 200 nM
